target.system: IRAK4 enzyme (Homo sapiens (Human))
experiment.notes: biochemical
Assay type: biochemical
setup.conditions: IRAK4 enzyme, TR-FRET, 500 μM ATP
Reported IC50 values for a set of compounds
quantity: IC50 (nM)

chemical_structure=CC(C)(O)[C@H](F)CNC(=O)c1cnc(-c2ccc3cc(C#N)cnn23)cc1NCC1CN(CC(F)(F)F)C1 quantity=IC50 output_unit=nM result_number=10
chemical_structure=CC(C)(O)[C@H](F)CNC(=O)c1cnc(-c2ccc3cc(C#N)cnn23)cc1N quantity=IC50 output_unit=nM result_number=7
chemical_structure=Cc1nnc(N[C@H]2CC[C@H](Nc3cc(-c4ccc5cc(C#N)cnn45)ncc3C(=O)NC[C@@H](F)C(C)(C)O)CC2)o1 quantity=IC50 output_unit=nM result_number=1
chemical_structure=CC(C)C(=O)N[C@H]1CC[C@H](Nc2cc(-c3ccc4cc(C#N)cnn34)ncc2C(=O)NC[C@@H](F)C(C)(C)O)CC1 quantity=IC50 output_unit=nM result_number=2
chemical_structure=Cc1cncc(Nc2cc(-c3ccc4cc(C#N)cnn34)ncc2C(=O)NC[C@@H](F)C(C)(C)O)c1 quantity=IC50 output_unit=nM result_number=1
chemical_structure=CC(C)(O)[C@H](F)CNC(=O)c1cnc(-c2ccc3cc(C#N)cnn23)cc1NN1CCOCC1 quantity=IC50 output_unit=nM result_number=6630
chemical_structure=N#CCCNC(=O)c1cnc(-c2ccc3cc(C#N)cnn23)cc1NC12CCC(O)(CC1)CC2 quantity=IC50 output_unit=nM result_number=1

###

Reported IC50 values for a set of compounds
target.system: IRAK4 enzyme (Homo sapiens (Human), UniProt Q9NWZ3)
Sequence (Q9NWZ3 whole entry): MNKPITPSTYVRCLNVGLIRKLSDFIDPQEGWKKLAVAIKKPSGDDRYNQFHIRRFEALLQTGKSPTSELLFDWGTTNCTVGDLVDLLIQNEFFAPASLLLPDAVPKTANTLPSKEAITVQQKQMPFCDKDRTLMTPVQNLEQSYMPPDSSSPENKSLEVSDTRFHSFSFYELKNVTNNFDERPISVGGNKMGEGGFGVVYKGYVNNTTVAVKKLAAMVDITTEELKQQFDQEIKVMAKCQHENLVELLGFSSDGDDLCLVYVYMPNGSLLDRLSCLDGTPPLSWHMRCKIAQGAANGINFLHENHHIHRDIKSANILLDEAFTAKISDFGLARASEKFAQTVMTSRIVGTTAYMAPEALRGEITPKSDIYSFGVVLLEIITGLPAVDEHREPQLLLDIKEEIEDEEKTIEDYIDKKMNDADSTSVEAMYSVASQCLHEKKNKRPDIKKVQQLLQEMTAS
experiment.notes: biochemical
Format: biochemical
setup.conditions: IRAK4 enzyme, TR-FRET, 500 μM ATP
quantity: IC50 (nM)

compound="CC(=O)N1C[C@H]2C[C@@H](Nc3cc(-c4ccc5cc(C#N)cnn45)ncc3C(=O)NC[C@@H](F)C(C)(C)O)C[C@H]2C1 [Example 246]" quantity=IC50 output_unit=nM qualifier_symbol== result_number=17
compound="C[C@@H](O)C(=O)N1CCC(Nc2cc(-c3ccc4cc(C#N)cnn34)ncc2C(=O)NC[C@@H](F)C(C)(C)O)CC1 [Example 324]" quantity=IC50 output_unit=nM qualifier_symbol== result_number=2
compound="CN1CCOc2cc(Nc3cc(-c4ccc5cc(C#N)cnn45)ncc3C(=O)NC[C@@H](F)C(C)(C)O)cnc21 [Example 856]" quantity=IC50 output_unit=nM qualifier_symbol== result_number=1
compound="CC1(C)CC1CNC(=O)c1cnc(-c2ccc3cc(C#N)cnn23)cc1NC12CCC(O)(CC1)CC2 (stereo not shown) [Example 924]" quantity=IC50 output_unit=nM qualifier_symbol== result_number=1
compound="CC(C)Nc1cc(-c2ccc3cc(C#N)cnn23)ncc1C(=O)NCCS(C)(=O)=O [Example 92]" quantity=IC50 output_unit=nM qualifier_symbol== result_number=2
compound="CC(C)(O)[C@H](F)CNC(=O)c1cnc(-c2ccc3cc(C#N)cnn23)cc1NC[C@@H]1CCN1CC(F)(F)F [Example 891]" quantity=IC50 output_unit=nM qualifier_symbol== result_number=4
compound="Cn1ccc(Nc2cc(-c3ccc4cc(C#N)cnn34)ncc2C(=O)NC[C@@H](F)C(C)(C)O)n1 [Example 371]" quantity=IC50 output_unit=nM qualifier_symbol=< result_number=1
